B1: library; a variant is named by its letters at N, in order (parent)
chain: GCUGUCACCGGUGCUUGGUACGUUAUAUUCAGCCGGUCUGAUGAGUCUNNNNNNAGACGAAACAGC

- Variants of: B1
- Experiment summary: FACS-Seq fitted mean relative fluorescence mCherry/BFP with ligand (log10 relative fluorescence); HEK293T overexpressing SLC46A1; ligand concentration (+) FACS-Seq: 6 mM; higher = higher reporter protein expression
- Measurement context: with (6R,S)-folinic acid; ligand present: yes
Tag: met if measured FACS-Seq fitted mean (log10) is not below 0.3, not met if it is.

UAUACU	not met
CGGGAA	met
AAAGCG	met

# evaluate next
Prompt line: Quick check: does GCCAGA have FACS-Seq fitted mean (log10) greater than or equal to 0.3?
Response line: not met

// data source = the supplement of paper PMC6757056
